test: solvent given as SMILES; conditions: in Cc1ccccc1
Listing: emission maximum of selected molecules

structureNotation	emission maximum, nm
COc1ccc(/C=C/C2=CC(/C=C/c3ccc(OC)cc3)=[O+][B-](OC(C)=O)(OC(C)=O)O2)cc1	510
CC1(C)c2ccccc2N(c2ccc(-c3ccc(C#N)cn3)cc2)c2ccccc21	504
CC(C)(C)c1ccc2c(c1)c1cc(C(C)(C)C)cc3c1n2-c1cc(-c2ccc(F)cc2)cc2c1B3c1cc(C(C)(C)C)cc3c4cc(C(C)(C)C)ccc4n-2c13	496.94

###

Each item that follows carries a reported emission maximum.
experiment: solvent given as SMILES; details: in CCCCO
readoutLabel: emission maximum (nm)

compound	readoutLabel	unitSymbol	numericReadout
O=C1Nc2ccccc2/C1=C/C(=O)c1ccc(Cl)cc1	emission maximum	nm	405
c1ccc2sc(-c3ccc(-c4nnc(-c5ccc(-c6nnc(-c7ccc(-c8cc9ccccc9s8)s7)o6)cc5)o4)s3)cc2c1	emission maximum	nm	399
CCN(CC)c1cccc2c1ccc1c(=O)oc(-c3ccc(C(F)(F)F)cc3)cc12	emission maximum	nm	578
COc1cccc(-n2c(-c3ccc(O)cc3)nc(C)c2C)c1	emission maximum	nm	371
Cc1c2oc3c(C)c(N)cc(C(=O)NC4OC(=O)C(C(C)C)N(C)C(=O)CN(C)C(=O)C5CCCN5C(=O)C(C(C)C)NC4=O)c3nc-2c(C(=O)NC2OC(=O)C(C(C)C)N(C)C(=O)CN(C)C(=O)C3CCCN3C(=O)C(C(C)C)NC2=O)c(N)c1=O (stereo not given)	emission maximum	nm	669.51
COc1ccc2cc(-c3ccc(C(F)(F)F)cc3)oc(=O)c2c1	emission maximum	nm	411
CN1CCN(c2ccc3c4c(cccc24)C(=O)c2ccccc2-3)CC1	emission maximum	nm	632
CC1(C)Nc2cc(Cl)ccc2-c2[nH]c3ccccc3c(=O)c21	emission maximum	nm	505
CN(C)c1ccc(/C=C/C=C2\CC/C(=C\c3ccc(N(C)C)cc3)C2=O)cc1	emission maximum	nm	712
O=c1[nH]c2ccccc2[nH]1	emission maximum	nm	311

###

experiment: solvent given as SMILES; conditions: in ClC(Cl)Cl
Entries and their measured emission maximum follow.

structureNotation	emission maximum (nm)
N#Cc1c2nc3ccccn3c2nc2nc3ccccn3c12	510
F[B-]1(F)OC(c2ccc(N3CCCC3)cc2)=Cc2cccc[n+]21	496
CCCCCCCCn1c(=O)c2cc3cc4cc5c(=O)n(CCCCCCCC)c(=O)c5cc4c(C#Cc4ccc(N(c5ccccc5)c5ccccc5)cc4)c3cc2c1=O	611

###

assay: solvent given as SMILES; conditions: in CC#N
Recorded emission maximum, one value per entry.

structureNotation	emission maximum (nm)
CCCCNC(=O)c1nc2c(N(C)C)nc(N(C)C)nc2n1Cc1ccccc1	405
COc1cc(/C=C/c2nc3ccccc3o2)c(OC)cc1/C=C/c1nc(C)nc(C)n1	495
NCCc1c[nH]c2ccc(O)cc12	332
Cc1cccc2nc3[nH]c(=O)[nH]c(=O)c3nc12	452
COc1ccc(N2c3cc(OC)ccc3N=c3cc4c(cc32)=Nc2cc(C(C)(C)C)cc(C(C)(C)C)c2O4)cc1	624
CN(C)c1ccc(-n2c(-c3ccncc3)nc3nccnc32)cc1	405
CC(=O)c1c2c(cc3cc(N(C)C)ccc13)CCC2	545
Nc1ccc(-c2ccc(N)cc2)cc1	393

###

Catalogue of molecules with associated emission maximum
assay: solvent given as SMILES; conditions: in CCOC(C)=O

structureNotation	emission maximum
COc1ccc2cc(-c3ccc(C(F)(F)F)cc3)oc(=O)c2c1	404 nm
COc1cccc(-n2c(-c3ccc(O)cc3)nc(C)c2C)c1	368 nm
CCCCCCCCCCCCCCCCOc1cc(C#Cc2ccc3ccccc3c2)c(OCCCCCCCCCCCCCCCC)cc1C#Cc1ccc(C=C(C#N)C#N)cc1	590 nm

###

test: solvent given as SMILES; settings: in ClC(Cl)Cl

compound	emission maximum / nm
CCCCC1=Cc2c3ccc4cccc5ccc(c6cc(-c7ccc(N(c8ccccc8)c8ccccc8)cc7)n(c26)P1(=O)c1ccccc1)c3c45 (centres undefined)	537
COc1ccc(/C=C/C=C/C=C/c2ccc([N+](=O)[O-])cc2)cc1	681
COc1ccc(-c2nc(-c3ccc(OC)cc3)n3ccccc23)cc1	479
COc1c2ccccc2c(-c2ccccc2)c2ccccc12	426
CN(C)c1ccc(-c2cc(-c3cccs3)nc(-c3ccccc3)n2)cc1	473
O=C1c2ccccc2S(=O)(=O)c2ccc(-n3c4ccccc4c4ccccc43)cc21	595.5
COc1ccc(O[B-]2(Oc3ccc(OC)cc3)n3c(C)cc(C)c3C(c3ccc(I)cc3)=C3C(C)=CC(C)=[N+]32)cc1	518.49
COc1cccc(-n2c(-c3ccc(O)cc3)nc(C)c2C)c1	372
N#CC(C#N)=C(/C=C/c1cc2c3c(c1)CCCN3CCC2)c1ccc2c3c(cccc13)CC2	599
CN(C)c1ccc2nc(-c3ccccc3)sc2c1Cl	437
COc1cc(/C=C/c2nc3ccccc3o2)c(OC)cc1/C=C/c1nc(C)nc(C)n1	490
COc1ccc2c(C#N)cc3ccc4cc(C#N)c5ccc(OC)cc5c4c3c2c1	426
Oc1cccc(/N=C/c2ccccc2Oc2ccccc2)c1	415
Cc1ccc2cc3c(=O)n(C)c(=O)n(C)c3nc2c1	406
Cc1cccc(C2=Cc3ccc4ccccc4[n+]3[B-](F)(F)O2)c1	440
Cc1ccc(C2=Cc3c4ccccc4cc[n+]3[B-](F)(F)O2)cc1	471
CC(C)(C)c1ccc2c(c1)c1cc(C(C)(C)C)ccc1n2-c1cccc2c1Oc1c(-c3nc(-c4ccccc4)nc(-c4ccccc4)n3)cccc1C2(C)C	489
COc1ccc2cc(C3=[N+]4C(=Nc5c(-c6ccccc6)cc(-c6ccc7cc(OC)ccc7c6)n5[B-]4(F)F)C(c4ccccc4)=C3Br)ccc2c1	728
CN(C)c1ccc(-c2nc(C#N)c(C#N)n2C)cc1	437
Cc1ccc(-c2oc3cccc4c5c(-c6ccc(C)cc6)/c(=N/S(=O)(=O)C(F)(F)F)oc6cccc(c2c34)c65)cc1	577
O=c1oc2ccccc2cc1-c1ccc([N+](=O)[O-])cc1	400
Cc1cc(C)c(B(c2c(C)cc(C)cc2C)c2cc3ccc4ccccc4c3c3c2ccc2ccccc23)c(C)c1	443
CC(C)(C)C1Nc2ccccc2C(=O)N1c1ccccc1 (centres undefined)	409
COc1ccc2cc(C#Cc3ccc([N+](=O)[O-])cc3)ccc2c1	592
CCC1(CC)c2cc(C#Cc3cc(C#Cc4ccc5c(c4)C(CC)(CC)c4cc(N(c6ccccc6)c6ccccc6)ccc4-5)c4ccc5c(C#Cc6ccc7c(c6)C(CC)(CC)c6cc(N(c8ccccc8)c8ccccc8)ccc6-7)cc(C#Cc6ccc7c(c6)C(CC)(CC)c6cc(N(c8ccccc8)c8ccccc8)ccc6-7)c6ccc3c4c65)ccc2-c2ccc(N(c3ccccc3)c3ccccc3)cc21	545
CCCCCCCCCCCCCCCCOc1cc(C#Cc2ccc3ccccc3c2)c(OCCCCCCCCCCCCCCCC)cc1C#Cc1ccc(C=C(C#N)C#N)cc1	596
CCC1=C(C)c2cc3c(OC)cc(OC)cc3c(=O)n2C1=O	469
CCC1=C(CC)C(C)=[N+]2C1=Cc1c(C)c3cc4c(cc3n1[B-]2(F)F)=[N+]1C(=Cc2c(CC)c(CC)c(C)n2[B-]1(F)F)C=4C	703
CCCCCCN1C(=O)c2cccc3c(-c4ccc(C)s4)ccc(c23)C1=O	482

###

test: solvent given as SMILES; conditions: in CC(C)=O

molecule	emission maximum / nm
Cc1c2oc3c(C)c(N)cc(C(=O)NC4OC(=O)C(C(C)C)N(C)C(=O)CN(C)C(=O)C5CCCN5C(=O)C(C(C)C)NC4=O)c3nc-2c(C(=O)NC2OC(=O)C(C(C)C)N(C)C(=O)CN(C)C(=O)C3CCCN3C(=O)C(C(C)C)NC2=O)c(N)c1=O (stereo not drawn)	609.72
CN(C)c1ccc(/C=C/c2cc[n+](C)cc2)cc1	602
CCN(CC)c1cccc2c1ccc1c(=O)oc(-c3ccc(C(F)(F)F)cc3)cc12	604

###

Reported values of emission maximum for individual entries
experiment: solvent given as SMILES; details: in CS(C)=O

compound	unitSymbol	emission maximum
CCN1c2ccc(/C=N/Nc3ccccn3)cc2Sc2cc(-c3ccc(OC)cc3)ccc21	nm	503
CCOC(=O)/C(C#N)=C\c1ccc2c(c1)c1ccccc1n2-c1ccc(C)cc1	nm	503
NS(=O)(=O)c1ccc(N2N=C(c3ccc(O)cc3)CC2c2ccccc2)cc1 (centres undefined)	nm	424
c1ccc2c(c1)c1ccccc1c1[nH]c(-c3ccc(-c4nc5c6ccccc6c6ccccc6c5[nH]4)cc3)nc21	nm	430
COc1ccc2oc(-c3cc4cc(OC)ccc4oc3=O)cc2c1	nm	484
CN(C)c1ccc2c3c(ccc2c1)C(=O)CCC3	nm	453
N#CC1=C(N)n2c(=O)c3ccccc3c(=O)n2C1c1ccc([N+](=O)[O-])cc1 (centres undefined)	nm	575
CCCCOc1ccc2cc(-c3ccc(C)cc3)c(=O)oc2c1	nm	431
COc1ccc(C#Cc2ccc(C#N)cc2)cc1OC	nm	462
Cc1ccc(-n2c3ccccc3c3cc(C=C(C#N)C#N)ccc32)cc1	nm	524
N#Cc1cc2ccccc2[nH]1	nm	335
N#CC(C#N)=Cc1cn(-c2ccccc2)nc1-c1ccccc1	nm	443
CCN(CC)c1ccc(/C=N/Nc2ccc(C#N)cc2)c(O)c1	nm	422
CCC1=C(C)C(=O)n2c1cc1c(CCC(=O)O)c(C)c(C)n1c2=O	nm	510

Measured values drawn from the Deep4Chem optical property database for this set.
